Assign RLM % Qh (%) to each entry below.
- TEST SUMMARY: Rat Liver Microsome Stability Assay
- Assay type: in vitro ADME
- CONDITION DESCRIPTION: rat liver microsomes, 1 uM compound
Value expressed in %; do not type the unit.

Exam item: # query: RLM % Qh (%) of entry COc1cc(O[C@@H]2C[C@H](C)N(Cc3sc(NC(C)=O)nc3Cl)C2)ncn1
Marked response: 55

Exam item: Would you kindly share the measured RLM % Qh (%) for COc1cc(O[C@@H]2C[C@H](C)N(Cc3cnc(NC(C)=O)s3)C2)ncn1 ?
Marked response: 31

Exam item: What measured RLM % Qh (%) goes with CC(=O)Nc1ncc(CN2CCC[C@H](Oc3cc(C)nc(C)c3)C2)s1 ?
Marked response: 67

Exam item: Recorded RLM % Qh (%) for CC(=O)Nc1nc(F)c(CN2C[C@H](Oc3cc(Cl)ccn3)C[C@@H]2C)s1 , please?
Marked response: 88

Exam item: Which measured RLM % Qh (%) value corresponds to COCCOc1cc(O[C@@H]2C[C@H](C)N(Cc3sc(NC(C)=O)nc3F)C2)ncn1 ?
Marked response: 31

Exam item: What value of measured RLM % Qh (%) is listed for COc1cc(O[C@H]2CCCN(Cc3sc(NC(C)=O)nc3F)C2)ncn1 ?
Marked response: 83

Exam item: # query: RLM % Qh (%) of entry CO[C@H]1C[C@@H](Oc2cc(O[C@@H]3C[C@H](C)N(Cc4cnc(NC(C)=O)s4)C3)ncn2)C1
Marked response: 55

Exam item: Quick one: RLM % Qh (%) for COc1cccc(O[C@@H]2C[C@H](C)N(Cc3sc(NC(C)=O)nc3F)C2)n1 ?
Marked response: 95

Exam item: Bench note: what RLM % Qh (%) did CC(=O)Nc1nc(F)c(CN2CC[C@H](Oc3cc(C)nc(C)c3)C2)s1 show?
Marked response: 57

Exam item: Any idea what RLM % Qh (%) was measured for CC(=O)Nc1nc(F)c(CN2CCC[C@@H](Oc3cc(C)nc(C)c3)C2)s1 ?
Marked response: 85

Exam item: Can you share its RLM % Qh (%)? I mean this compound: CC(=O)Nc1nc(F)c(CN2C[C@H](Oc3ccc(F)nc3)C[C@@H]2C)s1
Marked response: 60

Exam item: Would you kindly share the measured RLM % Qh (%) for CC(=O)Nc1ncc(CN2C[C@H](Oc3cc(N4CCCC4)ncn3)C[C@@H]2C)s1 ?
Marked response: 65

Exam item: Item CC(=O)Nc1ncc(CN2CC[C@@H](Oc3ccc(F)cn3)C2)s1 has what recorded RLM % Qh (%)?
Marked response: 40

Exam item: Record request: RLM % Qh (%) value, item CC(=O)Nc1nc(F)c(CN2C[C@H](Oc3cnc(C(F)F)cn3)C[C@@H]2C)s1
Marked response: 61
